target of assay: human β3 (Homo sapiens, UniProt P13945)
Construct: And then full length of human β3 gene was cloned using this fragment as a probe; expressed in transfected cells; host or cells: CHO cells (Chinese hamster ovary), pcDNA3 vector
Sequence (P13945 whole entry, the tested form may be a part): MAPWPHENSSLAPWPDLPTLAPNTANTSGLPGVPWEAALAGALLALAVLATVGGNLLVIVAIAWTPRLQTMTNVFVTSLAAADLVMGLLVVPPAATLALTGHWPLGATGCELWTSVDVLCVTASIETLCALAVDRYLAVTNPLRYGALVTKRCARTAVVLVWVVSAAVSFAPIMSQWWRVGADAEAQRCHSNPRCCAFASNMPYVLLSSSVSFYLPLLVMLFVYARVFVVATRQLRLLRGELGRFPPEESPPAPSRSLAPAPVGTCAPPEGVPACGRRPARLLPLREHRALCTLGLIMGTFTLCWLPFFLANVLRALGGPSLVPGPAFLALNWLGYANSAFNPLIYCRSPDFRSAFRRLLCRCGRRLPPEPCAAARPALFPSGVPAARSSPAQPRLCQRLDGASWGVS
measurement notes: Human β3-agonist activity (cAMP in CHO cells transfected with human β3 gene)
Assay type: cell-based
Structures can show the parent of a compound that is named as a salt.

- compound: "CC(C)S(=O)(=O)Nc1cc(C(O)CNCCOc2ccc3c(c2)[nH]c2ccccc23)ccc1O (racemic) [Example 54, Hydrochloride]"
  target of assay: "human β3 (Homo sapiens, UniProt P13945)"
  EC50, nM: 8.4
- compound: "CS(=O)(=O)Nc1cc(C(O)CNCCOc2ccc3c(c2)sc2ccccc23)ccc1F (racemic) [Example 56, Hydrochloride]"
  target of assay: "human β3 (Homo sapiens, UniProt P13945)"
  EC50, nM: 630
- compound: "CS(=O)(=O)Nc1cc(C(O)CNCCOc2ccc3c(c2)[nH]c2ccccc23)ccc1O.Cl (racemic) [Example 2, Hydrochloride]"
  target of assay: "human β3 (Homo sapiens, UniProt P13945)"
  EC50, nM: 0.18
